Every entry's value here was drawn from patent US20170253607A1.

pIC50 values, listed per item
- assayed-target: UniProtKB P04585
- procedure-details: HIV-protease inhibitory activity assay (FRET peptide substrate)
- condition-info: Test Example 1
- Description: Test Example 1: HIV-Protease Inhibitory Activity Assay The HIV-1 PR assay was performed by using a FRET (Fluorescence Resonance Energy Transfer) peptide substrate (AnaSpec, Inc., Fremont, Calif.). Initially in the intact FRET peptide, the fluorescence of HiLyte Fluor 488 is quenched by QXL 520. Upon substrate cleavage by PR, the fluorescence is recovered and can be monitored. […] Background fluorescence intensity was measured and let it stand for another 15 minutes at room temperature. […]
pIC50: −log10 of the molar value.

{"compound": "COc1ccc(S(=O)(=O)N(CC(C)C)CC(O)C(Cc2ccc(NCc3c(-c4sc5c(c4C(=O)O)CC(C)(C)CC5)ccc4ccccc34)cc2)NC(=O)OC2COC3(C)OCCC23)cc1 (stereo not shown) [Compound I-531]", "pIC50": 8.16}
{"compound": "COc1ccc(S(=O)(=O)N(CC(C)C)CC(O)C(Cc2ccc(NCc3ccc(N4CC(C)(C)C4=O)cc3-c3sc4c(c3C(=O)O)CC(C)(C)CC4)cc2)NC(=O)OC2COC3(C)OCCC23)cc1 (stereo not shown) [Compound I-740]", "pIC50": 8.80}
{"compound": "COc1ccc(S(=O)(=O)N(CC(C)C)CC(O)C(Cc2ccc(NCC3(c4ccc(-c5sc6c(c5C(=O)O)CC(C)(C)CC6)cc4)CCCC3)cc2)NC(=O)OC2COC3(C)OCCC23)cc1 (stereo not shown) [Compound I-340]", "pIC50": 8.25}
{"compound": "CC(C)CN(CC(O)C(Cc1ccc(OCc2ccccc2-c2sc3c(c2C(=O)O)CC(C)(C)CC3)cc1)NC(=O)OC1COC2(C)OCCC12)S(=O)(=O)c1ccc2nc(O)sc2c1 (stereo not shown) [Compound I-131]", "pIC50": 8.67}
{"compound": "COc1ccc(S(=O)(=O)N(CC(C)C)CC(O)C(Cc2ccc(N(C)CC3=C(c4sc5c(c4C(=O)O)CC(C)(C)CC5)CCOC3)cc2)NC(=O)OC2COC3(C)OCCC23)cc1 (stereo not shown) [Compound I-363]", "pIC50": 8.47}
{"compound": "COc1ccc(S(=O)(=O)N(CC(C)C)CC(O)C(Cc2ccc(OCc3ccccc3-c3sc4c(c3C(=O)O)CC(C)(C)CC4(C)C)cc2)NC(=O)OC2COC3(C)OCCC23)cc1 (stereo not shown) [Compound I-113]", "pIC50": 8.74}
{"compound": "CC(C)CN(CC(O)C(Cc1ccc(OCc2ccc(-c3ccccc3)cc2C(=O)N(C)C)cc1)NC(=O)OC1COC2(C)OCCC12)S(=O)(=O)c1ccc2ncsc2c1 (stereo not shown) [Compound I-161]", "pIC50": 9.03}
{"compound": "COc1ccc(S(=O)(=O)N(CC(C)C)CC(O)C(Cc2ccc(OCc3ccccc3-c3ccc4c(C(=O)O)csc4c3)cc2)NC(=O)OC2COC3(C)OCCC23)cc1 (stereo not shown) [Compound I-179]", "pIC50": 8.96}
{"compound": "COc1ccc(S(=O)(=O)N(CC(C)C)CC(O)C(Cc2ccc(N(C)Cc3ccccc3-c3ccc(NC(=O)CC4CC(C)(C)CCC4=O)cc3)cc2)NC(=O)OC2COC3(C)OCCC23)cc1 (stereo not shown) [Compound I-772]", "pIC50": 7.68}
{"compound": "COc1ccc(S(=O)(=O)N(CC(C)C)CC(O)C(Cc2ccc(N(C)CC3CCCCC3c3sc4c(c3C(=O)O)CC(C)(C)CC4)cc2)NC(=O)OC2COC3(C)OCCC23)cc1 (stereo not shown) [Compound I-359]", "pIC50": 8.42}
{"compound": "COc1ccc(S(=O)(=O)N(CC(C)C)CC(O)C(Cc2ccc(NCc3ccc(C(=O)N(C)C)cc3-c3sc4c(c3C(=O)O)CC(C)(C)CC4)cc2)NC(=O)OC2COC3(C)OCCC23)cc1 (stereo not shown) [Compound I-417]", "pIC50": 8.79}
{"compound": "COc1ccc(S(=O)(=O)N(CC(C)C)CC(O)C(Cc2ccc(OCc3ccccc3-c3sc4c(c3C(=O)O)CC(C)(C)CC4)cc2)NC(=O)OC2COC3(COC(=O)NCc4ccc(F)cc4)OCCC23)cc1 (stereo not shown) [Compound I-784]", "pIC50": 8.14}
{"compound": "COc1ccc(S(=O)(=O)N(CC(C)C)CC(O)C(Cc2ccc(OCc3ccccc3-c3sc(N4CCC(C)(C)CC4)nc3C(=O)O)cc2)NC(=O)OC2COC3OCCC23)cc1 (stereo not shown) [Compound I-845]", "pIC50": 9.07}
{"compound": "COc1ccc(S(=O)(=O)N(CC(C)C)CC(O)C(Cc2ccc(Oc3ccc(-c4sc5c(c4C(=O)O)CC(C)(C)CC5)c(C(F)(F)F)c3)cc2)NC(=O)OC2COC3(C)OCCC23)cc1 (stereo not shown) [Compound I-135]", "pIC50": 8.17}
{"compound": "COc1ccc(S(=O)(=O)N(CC(C)C)C[C@@H](O)[C@H](Cc2ccc(NC[C@H]3CCCC[C@H]3c3sc4c(c3C(=O)O)CC(C)(C)CC4)cc2)NC(=O)O[C@H]2CO[C@@]3(C)OCC[C@@H]23)cc1 [Compound I-247]", "pIC50": 8.65}
{"compound": "COc1ccc(S(=O)(=O)N(CC(C)C)CC(O)C(Cc2ccc(NCC3=C(c4sc5c(c4C(=O)O)CC(C)(C)CC5)CCCC3)cc2)NC(=O)OC2COC3(C)OCCC23)cc1 (stereo not shown) [Compound I-231]", "pIC50": 8.41}
{"compound": "COc1ccc(S(=O)(=O)N(CC(C)C)CC(O)C(Cc2ccc(NCc3cc(OC)ccc3C(=O)Nc3sc4c(c3C(=O)O)CC(C)(C)CC4)cc2)NC(=O)OC2COC3(C)OCCC23)cc1 (stereo not shown) [Compound I-732]", "pIC50": 8.49}
{"compound": "COc1ccc(S(=O)(=O)N(CC(C)C)CC(O)C(Cc2ccc(NCc3cc(OC)c(OC)cc3-c3sc4c(c3C(=O)O)CC(C)(C)CC4)cc2)NC(=O)OC2COC3(C)OCCC23)cc1 (stereo not shown) [Compound I-560]", "pIC50": 8.78}
{"compound": "COc1ccc(S(=O)(=O)N(CC(C)C)C[C@@H](O)[C@H](Cc2ccc(OCc3ccc(-c4ccc(F)cc4F)cc3C(=O)NC(=O)NC(C)(C)C)cc2)NC(=O)O[C@H]2CO[C@@]3(C)OCC[C@@H]23)cc1 [Compound I-25]", "pIC50": 8.68}
